- Species: Rattus norvegicus
- ASSAY OVERVIEW: The compound was tested for its cardiovascular activity in rat heart model. producing a 25% increase (EC25) in CF(coronary flow).
- Type: functional
QUANTITY MEASURED: EC25 (nM)
Give bare numbers, in nM.

// below: answered compounds
>>> recorded_number("OC(COc1cccc2cnccc12)CN1CCN(c2ccccc2SCc2ccccc2)CC1 (stereo unspecified)")
1000
>>> recorded_number("OC(COc1cccc2[nH]ccc12)CN1CCN(C(c2ccccc2)c2ccccc2)CC1 (stereo unspecified)")
120
>>> recorded_number("OC(COc1cccc2cnccc12)CN1CCN(C(c2ccccc2)c2ccccc2)CC1 (stereo unspecified)")
200
>>> recorded_number("N#Cc1cc2c(OCC(O)CN3CCN(C(c4ccccc4)c4ccccc4)CC3)cccc2o1 (stereo unspecified)")
100
>>> recorded_number("OC(COc1cccc2ncccc12)CN1CCN(C(c2ccccc2)c2ccccc2)CC1 (stereo unspecified)")
800

Lab note: each compound below needs its EC25 filled in.
1. OC(COc1ccnc2cc(C(F)(F)F)ccc12)CN1CCN(C(c2ccccc2)c2ccccc2)CC1 (stereo unspecified)
2. Cc1cc(OCC(O)CN2CCN(C(c3ccccc3)c3ccccc3)CC2)c2ccccc2n1.Cl.O (stereo unspecified)
3. Oc1nccc2c(OCC(O)CN3CCN(C(c4ccccc4)c4ccccc4)CC3)cccc12 (stereo unspecified)
4. CCOC(=N)c1cc2c(OCC(O)CN3CCN(C(c4ccccc4)c4ccccc4)CC3)cccc2o1 (stereo unspecified)
5. N#Cc1cc2c(OCC(O)CN3CCN(C(c4ccccc4)c4ccccc4)CC3)cccc2[nH]1 (stereo unspecified)

Outgoing:
[200, 800, 150, 1000, 300]

Incoming: Dear colleague, I am looking for the recorded EC25 of the following compound: OC(COc1ccc2cccnc2c1)CN1CCN(C(c2ccccc2)c2ccccc2)CC1 (stereo unspecified)
Outgoing: 160

---

Kindly state EC50 for each of the entries shown.
- Organism: Rattus norvegicus
- ASSAY OVERVIEW: The compound was tested for its cardiovascular activity in rat heart model. producing a 50% increase (EC50) in CF(coronary flow).
- Assay type: functional, organism-based
Answers are plain numbers, in µM.

// below: answered compounds
>>> recorded_number("OC(COc1cccc2ncccc12)CN1CCN(C(c2ccccc2)c2ccccc2)CC1 (stereo unspecified)")
2
>>> recorded_number("OC(COc1ccnc2cc(C(F)(F)F)ccc12)CN1CCN(C(c2ccccc2)c2ccccc2)CC1 (stereo unspecified)")
0.4
>>> recorded_number("N#Cc1cc2c(OCC(O)CN3CCN(C(c4ccccc4)c4ccccc4)CC3)cccc2o1 (stereo unspecified)")
3
>>> recorded_number("OC(COc1cccc2[nH]ccc12)CN1CCN(C(c2ccccc2)c2ccccc2)CC1 (stereo unspecified)")
2.5
>>> recorded_number("OC(COc1ccc2cccnc2c1)CN1CCN(C(c2ccccc2)c2ccccc2)CC1 (stereo unspecified)")
1.01

As a next step, examine the compound that follows.
Incoming: Dear colleague, I am looking for the recorded EC50 of the following compound: OC(COc1cccc2cnccc12)CN1CCN(C(c2ccccc2)c2ccccc2)CC1 (stereo unspecified)
Outgoing: 1.5
